tested.system: JAK2 (Homo sapiens, UniProt O60674)
Construct: PV4210
Sequence (O60674 whole entry): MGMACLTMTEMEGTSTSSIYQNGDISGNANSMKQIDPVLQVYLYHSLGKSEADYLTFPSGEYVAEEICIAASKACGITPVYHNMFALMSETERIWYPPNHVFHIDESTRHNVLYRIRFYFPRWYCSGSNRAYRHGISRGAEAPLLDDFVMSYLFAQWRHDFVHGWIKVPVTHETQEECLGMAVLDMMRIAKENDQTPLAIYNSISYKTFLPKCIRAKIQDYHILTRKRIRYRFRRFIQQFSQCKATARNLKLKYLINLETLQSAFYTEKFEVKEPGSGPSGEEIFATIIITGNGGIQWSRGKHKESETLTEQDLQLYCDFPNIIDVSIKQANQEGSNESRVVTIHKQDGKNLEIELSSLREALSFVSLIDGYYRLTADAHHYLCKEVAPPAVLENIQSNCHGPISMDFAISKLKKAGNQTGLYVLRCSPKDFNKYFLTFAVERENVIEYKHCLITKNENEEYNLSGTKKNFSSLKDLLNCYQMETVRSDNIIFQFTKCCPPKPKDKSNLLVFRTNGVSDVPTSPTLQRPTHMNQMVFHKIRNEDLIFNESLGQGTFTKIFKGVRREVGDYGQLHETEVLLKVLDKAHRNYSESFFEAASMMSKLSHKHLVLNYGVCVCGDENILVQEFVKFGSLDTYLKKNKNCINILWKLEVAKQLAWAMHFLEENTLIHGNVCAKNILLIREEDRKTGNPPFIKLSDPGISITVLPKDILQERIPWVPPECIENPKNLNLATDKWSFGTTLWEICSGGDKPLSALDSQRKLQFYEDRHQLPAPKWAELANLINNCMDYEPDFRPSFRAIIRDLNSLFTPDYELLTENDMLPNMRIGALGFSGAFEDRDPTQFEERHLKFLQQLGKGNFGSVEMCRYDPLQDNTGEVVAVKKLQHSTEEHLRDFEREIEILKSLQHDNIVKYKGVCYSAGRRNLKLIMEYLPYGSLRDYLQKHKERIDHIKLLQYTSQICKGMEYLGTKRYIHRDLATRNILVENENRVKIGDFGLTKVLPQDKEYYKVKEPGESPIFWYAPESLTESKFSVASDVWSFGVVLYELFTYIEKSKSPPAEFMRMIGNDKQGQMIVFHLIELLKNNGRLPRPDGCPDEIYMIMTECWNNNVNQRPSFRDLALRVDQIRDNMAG
assay.notes: JAK enzymatic assay (peptide mobility shift), JAK2
test.settings: recombinant JAK2 2 nM, ATP 4 μM, 1 μM JAKtide peptide, 150 minutes
Sorting guide: entries reporting IC50 beneath 30 nM go in the condition met pile, the rest go in the condition not met pile.

{"molecule": "CN(c1ncnc2[nH]ccc12)[C@H]1CC[C@H](CS(=O)(=O)N[C@H]2CC[C@H](C(C)(C)O)CC2)CC1 [Example 37]", "tested.system": "JAK2 (Homo sapiens, UniProt O60674)", "assigned.category": "condition not met"}
{"molecule": "COc1cccc(CCNS(=O)(=O)C[C@H]2CC[C@H](N(C)c3ncnc4[nH]ccc34)CC2)c1 [Example 10]", "tested.system": "JAK2 (Homo sapiens, UniProt O60674)", "assigned.category": "condition not met"}

Strictly below 30 nM: is that where IC50 of CN(Cc1cccnc1)S(=O)(=O)C[C@H]1CC[C@H](N(C)c2ncnc3[nH]ccc23)CC1 [Example 35] sits?
condition not met

Strictly below 30 nM: is that where IC50 of CN(c1ncnc2[nH]ccc12)[C@H]1CC[C@H](CS(=O)(=O)NCC(F)(F)c2ccccc2)CC1 [Example 6] sits?
condition met

Strictly below 30 nM: is that where IC50 of CN(c1ncnc2[nH]ccc12)[C@H]1CC[C@H](CS(=O)(=O)Nc2ccc(Cl)nc2)CC1 [Example 25] sits?
condition not met

Strictly below 30 nM: is that where IC50 of Cc1ccc(CCNS(=O)(=O)C[C@H]2CC[C@H](N(C)c3ncnc4[nH]ccc34)CC2)cc1 [Example 7] sits?
condition met

Strictly below 30 nM: is that where IC50 of CN(c1ncnc2[nH]ccc12)[C@H]1CC[C@H](CS(=O)(=O)NCCc2ccc(Cl)c(Cl)c2)CC1 [Example 42] sits?
condition not met

Strictly below 30 nM: is that where IC50 of CN(c1ncnc2[nH]ccc12)[C@H]1CC[C@H](CS(=O)(=O)NCC(C)(F)c2cccc(F)c2)CC1 (stereo partly drawn) [Example 9] sits?
condition not met

Strictly below 30 nM: is that where IC50 of CN(c1ncnc2[nH]ccc12)[C@H]1CC[C@H](CS(=O)(=O)N[C@@H]2CCC[C@@H]2c2ccc(F)cc2)CC1 [Example 46] sits?
condition met

Strictly below 30 nM: is that where IC50 of CN(c1ncnc2[nH]ccc12)[C@H]1CC[C@H](CS(=O)(=O)Nc2ccc3c(c2)OCCCO3)CC1 [Example 27] sits?
condition met

Strictly below 30 nM: is that where IC50 of CN(c1ncnc2[nH]ccc12)[C@H]1CC[C@H](CS(=O)(=O)N[C@H]2C[C@@H]2c2ccccc2)CC1 [Example 32] sits?
condition met

Strictly below 30 nM: is that where IC50 of CN(c1ncnc2[nH]ccc12)[C@H]1CC[C@H](CS(=O)(=O)NC2(Cc3ccccc3)CCC2)CC1 [Example 44] sits?
condition not met

Strictly below 30 nM: is that where IC50 of CN(c1ncnc2[nH]ccc12)[C@H]1CC[C@H](CS(=O)(=O)Nc2ccc(C#N)cc2)CC1 [Example 21] sits?
condition not met

----------
tested.system: JAK2 (Homo sapiens, UniProt O60674)
Construct: PV4210
assay.notes: JAK enzymatic assay (peptide mobility shift), JAK2
test.settings: recombinant JAK2 2 nM, ATP 4 μM, 1 μM JAKtide peptide, 150 minutes
metric.name: pIC50
# reply with the number alone; pIC50 is -log10 of concentration in mol/L

Reference set (4 entries):
{"compound": "CN(c1ncnc2[nH]ccc12)[C@H]1CC[C@H](CS(=O)(=O)NCCc2ccc(S(N)(=O)=O)cc2)CC1", "pIC50": 7.83}
{"compound": "CN(c1ncnc2[nH]ccc12)[C@H]1CC[C@H](CS(=O)(=O)Nc2ccc3[nH]ccc3c2)CC1", "pIC50": 8.34}
{"compound": "Cc1cc(NS(=O)(=O)C[C@H]2CC[C@H](N(C)c3ncnc4[nH]ccc34)CC2)n[nH]1", "pIC50": 7.52}
{"compound": "CN(c1ncnc2[nH]ccc12)[C@H]1CC[C@H](CS(=O)(=O)NCCc2cccc(F)c2)CC1", "pIC50": 7.62}

For this compound ( `Cc1cc2cc(CNS(=O)(=O)C[C@H]3CC[C@H](N(C)c4ncnc5[nH]ccc45)CC3)ccc2[nH]1` ), measured pIC50 is 7.61

For this compound ( CN(c1ncnc2[nH]ccc12)[C@H]1CC[C@H](CS(=O)(=O)NC2CC(NC(=O)OC(C)(C)C)C2)CC1 (some centres unmarked) ), measured pIC50 is 6.91

For this compound ( `COc1ccc(CNS(=O)(=O)C[C@H]2CC[C@H](N(C)c3ncnc4[nH]ccc34)CC2)cc1` ), measured pIC50 is 7.56

For this compound ( `CN(c1ncnc2[nH]ccc12)[C@H]1CC[C@H](CS(=O)(=O)Nc2ccc3[nH]ncc3c2)CC1` ), measured pIC50 is 7.40

For this compound ( `CN(c1ncnc2[nH]ccc12)[C@H]1CC[C@@H](CS(=O)(=O)NCCc2ccccc2)CC1` ), measured pIC50 is 7.46

For this compound ( `Cc1cc(C)nc(CNS(=O)(=O)C[C@H]2CC[C@H](N(C)c3ncnc4[nH]ccc34)CC2)n1` ), measured pIC50 is 7.69

For this compound ( `COc1ccc(CNS(=O)(=O)C[C@H]2CC[C@@H](N(C)c3ncnc4[nH]ccc34)CC2)cc1` ), measured pIC50 is 7.44

Where do the numbers come from? From patent US8372854B2.
